Molecular target: Angiotensin II receptor (Oryctolagus cuniculus)
Experiment: Tested for the antagonism of AII-induced contraction in rabbit endothelium-denuded aorta strips
test readout: pA2

                                  smiles_str  result
 0  CCCCc1nc(Cl)c(CO)n1Cc1ccc(-c2ccsc2C(=O)O)cc1     < 5
 1  CCCCc1nc(Cl)c(CO)n1Cc1ccc(-c2ccoc2C(=O)O)cc1     < 5
 2  CCCCc1nc(CO)c(Cl)n1Cc1ccc(-c2ncccc2C(=O)O)cc1     < 5
 3  CCCCc1nc(Cl)c(CO)n1Cc1ccc(-c2cnccc2C(=O)O)cc1     < 5
 4  CCCCc1nc(CO)c(Cl)n1Cc1ccc(-c2ccoc2C(=O)O)cc1       6
 5  CCCCc1nc(CO)c(Cl)n1Cc1ccc(-c2nc(C)sc2C(=O)O)cc1    <= 5
 6  CCCCc1nc(CO)c(Cl)n1Cc1ccc(-c2cccnc2C(=O)O)cc1     < 5
 7  CCCCc1nc(Cl)c(CO)n1Cc1ccc(-c2nc(C)sc2C(=O)O)cc1     < 5
 8  CCCCc1nc(Cl)c(CO)n1Cc1ccc(-c2ccccc2C(=O)O)o1     5.2
 9  CCCCc1nc(Cl)c(CO)n1Cc1ccc(-c2cccnc2C(=O)O)cc1     6.1
10  CCCCc1nc(Cl)c(CO)n1Cc1ccc(-c2ccccc2C(=O)O)s1     < 5
11  CCCCc1nc(Cl)c(CO)n1Cc1ccc(-c2ncccc2C(=O)O)cc1     < 5
